Test system: SKOvr3
Measurement Notes: Cytotoxicity in vitro (CellTiter-Glo viability), SKOvr3
Type: cell-based, human
Assay Conditions: SKOvr3 (Ovarian), 72 hours
Non-standard residues stand in square brackets, D forms with d. Residues, ends and D or L forms follow the SMILES beside them. *: point of attachment. Dolaproine = CO[C@@H]([C@@H]1CCCN1)[C@@H](C)C(=O)O; Dil = CC[C@H](C)[C@H](NC)[C@@H](CC(=O)O)OC; X1 = C[C@@H](N*)[C@@H](O)c1ccccc1; NMeV = CN[C@H](C(=O)O)C(C)C
Reported EC50 values for a set of compounds
// return numeric value only (unit: nM, not printed)

compound="COc1cc2cc(c1Cl)N(C)C(=O)C[C@H](OC(=O)[C@H](C)N(C)C(=O)CCS)[C@]1(C)O[C@H]1[C@H](C)[C@@H]1C[C@@](O)(NC(=O)O1)[C@H](OC)/C=C/C=C(\\C)C2 [DM1]" measurement=9.1

Lab note: CC[C@H](C)[C@@H]([C@@H](CC(=O)N1CCC[C@H]1[C@H](OC)[C@@H](C)C(=O)N[C@H](C)[C@@H](O)c1ccccc1)OC)N(C)C(=O)[C@@H](NC(=O)[C@@H](NC)C(C)C)C(C)C [MMAE, monomethyl auristatin E, reference compound] (H-[NMeV]V[Dil][Dolaproine]-X1) gave EC50 of 0.01
